Conditions: 309.15 K; 101.33 kPa; Liquid; Pulse-echo method
Readout Kind: speed of sound (m/s)
The answer is to be given in m/s; state only the numeric part.

Complete the entry with speed of sound for C[NH2+]CCO.O=C[O-] [2-hydroxy-N-methylethanaminium formate]
1793.9

Complete the entry with speed of sound for CCC(=O)[O-].C[NH2+]CCO [2-hydroxy-N-methylethanaminium propionate]
1657.6

Complete the entry with speed of sound for CCCCC(=O)[O-].C[NH2+]CCO [2-hydroxy-N-methylethanaminium pentanoate]
1514.5

Complete the entry with speed of sound for CC(C)C(=O)[O-].C[NH2+]CCO [2-hydroxy-N-methylethanaminium isobutyrate]
1580.3

Turning now to a further compound:
Complete the entry with speed of sound for CCCC(=O)[O-].C[NH2+]CCO [N-methyl-2-hydroxyethylammonium butanoate]
1580

====

Conditions: 279.65 K; 101.33 kPa; Liquid; Vibrating tube method
Readout Kind: mass density (kg/m3)
The answer is to be given in kg/m3; state only the numeric part.

# annotated cases, reported mass density shown
Complete the entry with mass density for CCCC(=O)[O-].C[NH2+]CCO [N-methyl-2-hydroxyethylammonium butanoate]
1051.71

Complete the entry with mass density for CCCCC(=O)[O-].C[NH2+]CCO [2-hydroxy-N-methylethanaminium pentanoate]
1028.68

Complete the entry with mass density for CC(=O)[O-].C[NH2+]CCO [N-methyl-2-hydroxyethylammonium acetate]
1111.93

Complete the entry with mass density for CCC(=O)[O-].C[NH2+]CCO [2-hydroxy-N-methylethanaminium propionate]
1083.31

Complete the entry with mass density for CC(C)C(=O)[O-].C[NH2+]CCO [2-hydroxy-N-methylethanaminium isobutyrate]
1055.16

Turning now to a further compound:
Complete the entry with mass density for C[NH2+]CCO.O=C[O-] [2-hydroxy-N-methylethanaminium formate]
1138.58

====

Conditions: 331.16 K; 101.33 kPa; Liquid; Pulse-echo method
Parameter: speed of sound. Scope: all listed entries.
The answer is to be given in m/s; state only the numeric part.

# annotated cases, reported speed of sound shown
Complete the entry with speed of sound for CCCC(=O)[O-].C[NH2+]CCO [N-methyl-2-hydroxyethylammonium butanoate]
1511.1

Complete the entry with speed of sound for CCC(=O)[O-].C[NH2+]CCO [2-hydroxy-N-methylethanaminium propionate]
1591.8

Complete the entry with speed of sound for C[NH2+]CCO.O=C[O-] [2-hydroxy-N-methylethanaminium formate]
1751.3

Complete the entry with speed of sound for CCCCC(=O)[O-].C[NH2+]CCO [2-hydroxy-N-methylethanaminium pentanoate]
1447

New cases:
Complete the entry with speed of sound for CC(C)C(=O)[O-].C[NH2+]CCO [2-hydroxy-N-methylethanaminium isobutyrate]
1517.7

====

Parameter: speed of sound. Scope: all listed entries.
Details: 304.4 K; 101.33 kPa; Liquid; Pulse-echo method
Numbers after ± are expanded uncertainties.

Complete the entry with speed of sound for CCCC(=O)[O-].C[NH2+]CCO [N-methyl-2-hydroxyethylammonium butanoate]
1594.8 ± 2.1 m/s

Complete the entry with speed of sound for C[NH2+]CCO.O=C[O-] [2-hydroxy-N-methylethanaminium formate]
1803.2 ± 2.2 m/s

Complete the entry with speed of sound for CC(C)C(=O)[O-].C[NH2+]CCO [2-hydroxy-N-methylethanaminium isobutyrate]
1593.6 ± 2.1 m/s

Complete the entry with speed of sound for CCCCC(=O)[O-].C[NH2+]CCO [2-hydroxy-N-methylethanaminium pentanoate]
1529.2 ± 2.1 m/s

Turning now to a further molecule:
Complete the entry with speed of sound for CCC(=O)[O-].C[NH2+]CCO [2-hydroxy-N-methylethanaminium propionate]
1671.5 ± 2.2 m/s

====

Parameter: mass density. Scope: all listed entries.
Settings: 301.65 K; 101.33 kPa; Liquid; Vibrating tube method
± gives the expanded uncertainty stated by the source.
Quick note: number first, unit second.

# annotated cases, reported mass density shown
Complete the entry with mass density for CCCCC(=O)[O-].C[NH2+]CCO [2-hydroxy-N-methylethanaminium pentanoate]
1013.86 ± 2.1 kg/m3

Complete the entry with mass density for CC(=O)[O-].C[NH2+]CCO [N-methyl-2-hydroxyethylammonium acetate]
1098.74 ± 2.2 kg/m3

New cases:
Complete the entry with mass density for CC(C)C(=O)[O-].C[NH2+]CCO [2-hydroxy-N-methylethanaminium isobutyrate]
1041.13 ± 2.2 kg/m3

Complete the entry with mass density for CCCC(=O)[O-].C[NH2+]CCO [N-methyl-2-hydroxyethylammonium butanoate]
1036.87 ± 2.2 kg/m3

Complete the entry with mass density for CCC(=O)[O-].C[NH2+]CCO [2-hydroxy-N-methylethanaminium propionate]
1069.02 ± 2.2 kg/m3

Complete the entry with mass density for C[NH2+]CCO.O=C[O-] [2-hydroxy-N-methylethanaminium formate]
1126.29 ± 2.2 kg/m3

====

Parameter: speed of sound. Scope: all listed entries.
Details: 310.4 K; 101.33 kPa; Liquid; Pulse-echo method
The answer is to be given in m/s; state only the numeric part.

# annotated cases, reported speed of sound shown
Complete the entry with speed of sound for CCCCC(=O)[O-].C[NH2+]CCO [2-hydroxy-N-methylethanaminium pentanoate]
1510.7

Complete the entry with speed of sound for CC(C)C(=O)[O-].C[NH2+]CCO [2-hydroxy-N-methylethanaminium isobutyrate]
1576.7

New cases:
Complete the entry with speed of sound for CCC(=O)[O-].C[NH2+]CCO [2-hydroxy-N-methylethanaminium propionate]
1653.9

Complete the entry with speed of sound for C[NH2+]CCO.O=C[O-] [2-hydroxy-N-methylethanaminium formate]
1791.5

Complete the entry with speed of sound for CCCC(=O)[O-].C[NH2+]CCO [N-methyl-2-hydroxyethylammonium butanoate]
1576

====

Settings: 292.4 K; 101.33 kPa; Liquid; Pulse-echo method
Parameter: speed of sound. Scope: all listed entries.
The answer is to be given in m/s; state only the numeric part.

# annotated cases, reported speed of sound shown
Complete the entry with speed of sound for CCCCC(=O)[O-].C[NH2+]CCO [2-hydroxy-N-methylethanaminium pentanoate]
1567.2

Complete the entry with speed of sound for C[NH2+]CCO.O=C[O-] [2-hydroxy-N-methylethanaminium formate]
1826.6

Complete the entry with speed of sound for CCC(=O)[O-].C[NH2+]CCO [2-hydroxy-N-methylethanaminium propionate]
1707.1

New cases:
Complete the entry with speed of sound for CC(C)C(=O)[O-].C[NH2+]CCO [2-hydroxy-N-methylethanaminium isobutyrate]
1627.7

Complete the entry with speed of sound for CCCC(=O)[O-].C[NH2+]CCO [N-methyl-2-hydroxyethylammonium butanoate]
1633.1

====

Conditions: 293.65 K; 101.33 kPa; Liquid; Pulse-echo method
Readout Kind: speed of sound (m/s)
The answer is to be given in m/s; state only the numeric part.

# annotated cases, reported speed of sound shown
Complete the entry with speed of sound for CCCC(=O)[O-].C[NH2+]CCO [N-methyl-2-hydroxyethylammonium butanoate]
1629

Complete the entry with speed of sound for CCCCC(=O)[O-].C[NH2+]CCO [2-hydroxy-N-methylethanaminium pentanoate]
1563.1

Complete the entry with speed of sound for C[NH2+]CCO.O=C[O-] [2-hydroxy-N-methylethanaminium formate]
1824.1

Complete the entry with speed of sound for CCC(=O)[O-].C[NH2+]CCO [2-hydroxy-N-methylethanaminium propionate]
1703.4

Turning now to a further compound:
Complete the entry with speed of sound for CC(C)C(=O)[O-].C[NH2+]CCO [2-hydroxy-N-methylethanaminium isobutyrate]
1624.1

====

Conditions: 298.9 K; 101.33 kPa; Liquid; Vibrating tube method
Numbers after ± are expanded uncertainties.
Parameter: mass density. Scope: all listed entries.

# annotated cases, reported mass density shown
Complete the entry with mass density for CCCC(=O)[O-].C[NH2+]CCO [N-methyl-2-hydroxyethylammonium butanoate]
1038.73 ± 2.2 kg/m3

Complete the entry with mass density for CC(=O)[O-].C[NH2+]CCO [N-methyl-2-hydroxyethylammonium acetate]
1100.38 ± 2.2 kg/m3

New cases:
Complete the entry with mass density for C[NH2+]CCO.O=C[O-] [2-hydroxy-N-methylethanaminium formate]
1127.83 ± 2.2 kg/m3

Complete the entry with mass density for CCC(=O)[O-].C[NH2+]CCO [2-hydroxy-N-methylethanaminium propionate]
1070.79 ± 2.2 kg/m3

Complete the entry with mass density for CC(C)C(=O)[O-].C[NH2+]CCO [2-hydroxy-N-methylethanaminium isobutyrate]
1042.89 ± 2.2 kg/m3

Complete the entry with mass density for CCCCC(=O)[O-].C[NH2+]CCO [2-hydroxy-N-methylethanaminium pentanoate]
1015.69 ± 2.2 kg/m3

====

Conditions: 301.4 K; 101.33 kPa; Liquid; Vibrating tube method
Parameter: mass density. Scope: all listed entries.
The answer is to be given in kg/m3; state only the numeric part.

# annotated cases, reported mass density shown
Complete the entry with mass density for CCC(=O)[O-].C[NH2+]CCO [2-hydroxy-N-methylethanaminium propionate]
1069.18

Complete the entry with mass density for CCCC(=O)[O-].C[NH2+]CCO [N-methyl-2-hydroxyethylammonium butanoate]
1037.03

Complete the entry with mass density for CC(=O)[O-].C[NH2+]CCO [N-methyl-2-hydroxyethylammonium acetate]
1098.89

Complete the entry with mass density for C[NH2+]CCO.O=C[O-] [2-hydroxy-N-methylethanaminium formate]
1126.43

Complete the entry with mass density for CCCCC(=O)[O-].C[NH2+]CCO [2-hydroxy-N-methylethanaminium pentanoate]
1014.03

New cases:
Complete the entry with mass density for CC(C)C(=O)[O-].C[NH2+]CCO [2-hydroxy-N-methylethanaminium isobutyrate]
1041.29
